Values were extracted from PubChem BioAssay (NCI).

tested on: UACC-62 melanoma; test: NCI tumour cell line growth inhibition, 48 h
Measurement name: TGI

C=CCn1c2c(sc1=S)C(S)N=CN2 (stereo unspecified)    > 100 µM
COc1cc(C=C2C(=O)NC(=S)NC2=O)cc(OC)c1OC    > 100 µM
COC(=O)c1cc2c(cc1CC(Cc1ccc3c(c1)CCC3)C(=O)OC)CCC2 (stereo unspecified)    > 100 µM
COC(=O)c1cc(C)ccc1CC(Cc1ccc(C)cc1)C(=O)OC (stereo unspecified)    > 100 µM
CC1=C(c2cc(C(=O)Nc3ccc(Cl)cc3)nc(=S)[nH]2)Sc2ccccc2N1    > 100 µM
CN1COCc2cc3cc4c(cc3nc21)OCCO4    > 100 µM

---

tested on: BT-549 breast; assay: NCI tumour cell line growth inhibition, 48 h
Quick list: TGI per entry.
Measurement name: TGI

COC(=O)C1=C(C)NC(C)=C([N+](=O)[O-])C1c1cccc(N=O)c1 (stereo unspecified)    30.7 µM
CSC(SC)=C1C(=O)N(c2ccccc2)N=C1C    81.9 µM
COc1ccc2c(Oc3ccc(NC(=O)c4c(C)n(CC(C)(C)O)n(-c5ccccc5)c4=O)nc3)ccnc2c1    > 66 µM
COc1cc(C=C2C(=O)NC(=S)NC2=O)cc(OC)c1OC    > 100 µM
Cc1cc(/N=C/c2ccc(C#N)cc2)n(-c2ccccc2)n1    > 100 µM
NC(=S)N/N=C/c1cc(-c2cccc(N)c2)ccn1    > 100 µM
CCCCN(CCCC)C(=C(C(Cl)=C(Cl)Cl)[N+](=O)[O-])N(CCCC)CCCC    > 100 µM
COc1ccc(N=Nc2c3c(c(O)c4ccccc24)CCC(C)(C)O3)cc1    34.6 µM
CCN(CC)c1cc2oc3cc(N)cc(=N)c-3nc2cc1C    27.4 µM
COc1cc2c(cc1OC)C13CC[N+]4(C)CC5=CCOC6CC(=O)N2C1C6C5CC34[O-] (stereo unspecified)    > 100 µM
CCC(=O)Nc1ccc(N=NN(C)C)cc1    > 100 µM

---

system: U251 CNS; assay: NCI tumour cell line growth inhibition, 48 h
Where a SMILES comes first, the peptide text is derived from it. The star is where a group is joined. Bn = c1ccc(C*)cc1
Measurement name: TGI

COC(=O)C(CC(C)C)NC(=O)C(N)Cc1ccc(OCc2ccccc2)cc1 (stereo not drawn) (H-Tyr(Bn)-Leu-OMe; configuration not given here)    > 10 µM
c1ccc(CSc2nc3ccccc3nc2-c2cccs2)cc1    > 100 µM
COc1ccc(Cc2cnc(NC(=O)c3ccc4c(c3)OCCO4)s2)cc1    > 85.8 µM

---

Quick list: TGI per entry.
system: KM12 colon; test: NCI tumour cell line growth inhibition, 48 h
Where a SMILES comes first, the peptide text is derived from it. The star is where a group is joined. Bn = c1ccc(C*)cc1
Measurement name: TGI

COC(=O)c1cc2c(cc1CC(Cc1ccc3c(c1)CCC3)C(=O)OC)CCC2 (stereo unspecified)    > 100 µM
Nc1ccc2[nH]cc(CCC(=O)O)c2c1    > 100 µM
COc1ccc2c(c1)CCN=C2c1ccccc1CCCCl    > 100 µM
COC(=O)C(CC(C)C)NC(=O)C(N)Cc1ccc(OCc2ccccc2)cc1 (stereo unspecified) (H-Tyr(Bn)-Leu-OMe; configuration not given here)    > 10 µM
CCCCC#CS(=O)(=O)C(F)(F)F    > 100 µM
N#CC(=N)c1ncn(-c2ccccc2N)c1N    > 100 µM

---

test system: SN12C renal; assay: NCI tumour cell line growth inhibition, 48 h
Quick list: TGI per entry.
Measurement name: TGI (µM)

COCOc1ccc(C2(O)Oc3cc(OCOC)ccc3C2C)c(O)c1 (configuration not stated)    30
C[C@]12CC[C@@H]3c4ccc(O)c([N+](=O)[O-])c4CC[C@H]3[C@@H]1CC[C@@H]2NS(=O)(=O)c1cccc(Br)c1    3.54
COc1cc(C2C(C(=O)Nc3cc(F)c(F)cc3F)=C(C)NC(C)=C2C(=O)Nc2cc(F)c(F)cc2F)ccc1O    84.5
O=[N+]([O-])c1ccc(C2=Nc3ccccc3SC(c3ccccc3)C2)cc1 (configuration not stated)    32.2
O=C(c1ccco1)C1CC(c2c(O)ccc3ccccc23)=NN1 (configuration not stated)    46

---

system: CCRF-CEM leukemia; experiment: NCI tumour cell line growth inhibition, 48 h
Where a SMILES comes first, the peptide text is derived from it. The star is where a group is joined. Bn = c1ccc(C*)cc1
Measurement name: TGI

CC[C@@]1(O)C(=O)OCc2c1cc1n(c2=O)Cc2c-1nc1cc(F)c(C)c3c1c2[C@@H](N)CC3    > 100 µM
COC(=O)c1cc(C)ccc1CC(Cc1ccc(C)cc1)C(=O)OC (stereo not given)    > 100 µM
COC(=O)C1=C(O)C(C(=O)OC)[C@@]2(O)[C@@H](C(=O)OC)[C@H](C)[C@@H](C)[C@@H]1[C@@H]2C(=O)OC (stereo not given in full)    > 100 µM
N#CCCN(CCC#N)c1ccc(/C=C2\SC(=S)NC2=O)cc1Br    > 100 µM
COC(=O)C(CC(C)C)NC(=O)C(N)Cc1ccc(OCc2ccccc2)cc1 (stereo not given) (H-Tyr(Bn)-Leu-OMe; configuration not given here)    > 10 µM

---

Quick list: TGI per entry.
system: LOX IMVI melanoma; experiment: NCI tumour cell line growth inhibition, 48 h
Measurement name: TGI

COc1cc(C(=O)C/C(CCC(=O)Nc2ccc(Cl)cc2Cl)=N/NC(=O)C(=O)NN)ccc1O    > 100 µM
O=C(NCc1ccc(S(=O)(=O)c2cc(F)cc(F)c2)cc1)c1ccc2nccn2c1    > 66.8 µM
CCCCc1c2c(nc3c1CCC/C3=C\c1ccccc1)/C(=C/c1ccccc1)CCC2    > 100 µM

---

test system: HOP-92 NSCLC; assay: NCI tumour cell line growth inhibition, 48 h
Measurement name: GI50

CCN1C(=O)N(CC)C2Nn3c(s/c(=C4\C(=O)N(C)c5ccccc54)c3=O)=NC21 (stereo not given)    69.5 µM
O=C(NCc1ccc(S(=O)(=O)c2cc(F)cc(F)c2)cc1)c1ccc2nccn2c1    22.5 µM
COc1ccc(-c2csc(NC(=O)CSc3nc(C)c(-c4ccccc4)n3Nc3ccccc3)n2)cc1    > 100 µM
CCCCCCCCCCCCOC1C(C(CC(=O)NCCN2CCCC2)NS(=O)(=O)c2cc(Cl)cc(Cl)c2)OC2OC(C)(C)OC21 (stereo not given)    1.49 µM
CCCCCCCCCCN1CCC(N2CCCCC2)CC1    0.763 µM

---

tested on: HOP-92 NSCLC; test: NCI tumour cell line growth inhibition, 48 h
Measurement name: TGI

OCC(O)C(O)C(O)/C=N/Nc1nc(O)c(/C=C2\C=Nc3ccccc32)[nH]1 (centres undefined)    > 100 µM
O=C(O)CSc1n[nH]c(Cc2ccccc2)n1    > 100 µM
CCOC(=O)C(C)c1nc2c(Cl)c3ncccc3cc2[nH]c1=O (centres undefined)    > 100 µM
CSC(SC)=C1C(=O)N(c2ccccc2)N=C1C    33.7 µM

---

tested on: OVCAR-4 ovarian; assay: NCI tumour cell line growth inhibition, 48 h
Quick list: TGI per entry.
Measurement name: TGI

COc1ccc(Cc2cnc(NC(=O)c3ccc4c(c3)OCCO4)s2)cc1    > 100 µM
COc1cc(C2C(C(=O)Nc3cc(F)c(F)cc3F)=C(C)NC(C)=C2C(=O)Nc2cc(F)c(F)cc2F)ccc1O    > 100 µM
COc1ccc(N=NC(=Nc2ccc(F)cc2)c2ccc(N(CCC#N)CCC#N)cc2)cc1    > 100 µM
COC(=O)/C(=C\c1ccc(N(CCC#N)CCC#N)cc1)NC(=O)c1cc([N+](=O)[O-])ccc1Cl    > 100 µM
CC(C)(C)OC(=O)N1N=NC2C1C1CC(OCc3ccccc3)(OCc3ccccc3)C2O1 (centres undefined)    > 100 µM
O=C(CNCc1ccccc1)Oc1c(Cl)c(Cl)c(Cl)c(Cl)c1Cl    > 100 µM
COC(=O)c1cc(/C=C/c2ccc(S(N)(=O)=O)cc2)ccc1O    > 100 µM
CCN(CC)CCNC(=O)c1ccc(C)c(OCc2ccccc2)c1[N+](=O)[O-]    > 100 µM
Cc1ccc(S(=O)(=O)NC(=O)NC2=NC(C)(C)N(c3ccc(Cl)c(Cl)c3)C(N)=N2)cc1    > 100 µM
COc1ccc(N=Nc2c3c(c(O)c4ccccc24)CCC(C)(C)O3)cc1    50.4 µM
COC(=O)C1OC(O[C@H]2CC[C@]3(C)[C@H]4CC=C5[C@@H]6CC(C)(C)CC[C@]6(C(=O)OC6OCC(O)C(O)C6OC6OC(C)C(OC7OCC(OC8OCC(O)C(O)C8O)C(O)C7O)C(O)C6O)[C@H](O)C[C@@]5(C)[C@]4(C)CC[C@H]3C2(C)C)C(O)C(O)C1O (some centres undefined)    21.6 µM
CC1CN1c1c(C(=O)/C=C/c2ccc(Cl)cc2)c(-c2ccccc2)nn(C)c1=O (centres undefined)    7.52 µM
O=C1CS(=O)C23c4cc5ccccc5n4CCC2CCCN13 (centres undefined)    > 100 µM
O/C(=C\c1nc2ccccc2nc1NC12CC3CC(CC(C3)C1)C2)c1ccc(Br)cc1    > 10 µM
